Items are presented alongside their recorded pIC50.
# Test system: Plasmodium falciparum
# METHOD_SUMMARY: Hit confirmation in dose-response curve in NF54 nanoGlo assay, at 72h
# Assay type: functional, organism-based, Erythrocyte
# Parameters: timepoint 72 hour
# CONDITION_SUMMARY: Plasmodium falciparum, NF54, Erythrocyte, 72 h
pIC50: −log10 of the molar value.

STRUCTURE_NOTATION: COC(=O)c1ccccc1NC(=O)NCCn1nnc2cc(S(=O)(=O)N(C)C)ccc21
pIC50: 5.59
//
STRUCTURE_NOTATION: Cc1ccc(S(=O)(=O)c2c(NS(=O)(=O)c3ccccc3)n(CCc3ccccc3)c3nc4ccccc4nc23)cc1
pIC50: 5.84
//
STRUCTURE_NOTATION: CC(C)N1CCC2(CC1)N=C(c1ccc3c(c1)OCO3)C[C@@H](c1cc(Cl)ccc1O)N2
pIC50: 5.42
//
STRUCTURE_NOTATION: COc1ccc(-c2nn3c(N4CCN(CC=Cc5ccccc5)CC4)cc(C)nc3c2C)cc1OC
pIC50: 5.76
//
STRUCTURE_NOTATION: CC(C)c1cccc(Nc2nc3ccncc3n(C(C)C)c2=O)c1
pIC50: 5.78
//
STRUCTURE_NOTATION: CC1CCN(c2nccnc2Oc2ccc(C(=O)NCc3ccccc3Cl)cc2)CC1
pIC50: 5.61
//
STRUCTURE_NOTATION: CN(C(=O)C(C)(C)Nc1ncc(C(F)(F)F)cc1Cl)c1ccc(Cl)cc1
pIC50: 5.45
//
STRUCTURE_NOTATION: COc1ccc(-c2c(C)nn3c(N4CCC(C(=O)NC5CC5)CC4)cc(C)nc23)cc1OC
pIC50: 5.57
//
STRUCTURE_NOTATION: COc1ccc(CC(=N)Nc2cc3cc(OC)c(OC)cc3c(Cc3ccc(OC)c(OC)c3)n2)cc1OC
pIC50: 5.65
